Entry source: paper PMC12606641

# measured target: CD209 CRD (Homo sapiens, UniProt Q9NNX6)
# Construct: Carbohydrate recognition domain of CD209; inferred from HisTrap/imidazole purification
# Sequence (Q9NNX6 263-378 limits assumed): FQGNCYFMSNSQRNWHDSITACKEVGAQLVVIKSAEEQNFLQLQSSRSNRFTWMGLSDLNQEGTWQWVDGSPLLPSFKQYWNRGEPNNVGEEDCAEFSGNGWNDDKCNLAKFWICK
# test details: NanoDSF thermal shift binding study, CD209 CRD
# measurement setup: 12 μM protein, unfolded fraction evaluated at 63 °C, Hill fit, read-out: EC50 (unfolded fraction vs TS concentration)
pEC50: −log10 of the molar value.
Listing of recorded pEC50 by entry.
measured quantity: pEC50

>  <molecule>
[N-]=[N+]=NCCOCCOCCOCCn1cc(CO[C@H]2O[C@H](CO)[C@@H](O)[C@H](O)[C@@H]2O)nn1 [ManN3]

>  <measured quantity>
pEC50

>  <result modifier>
<

>  <measured number>
1.10

$$$$
>  <molecule>
[N-]=[N+]=NCCOCCOCCOCCn1cc(CO[C@H]2O[C@H](CO[C@H]3O[C@H](CO)[C@@H](O)[C@H](O)[C@@H]3O)[C@@H](O)[C@H](O[C@H]3O[C@H](CO)[C@@H](O)[C@H](O)[C@@H]3O)[C@@H]2O)nn1 [Man3N3]

>  <measured quantity>
pEC50

>  <result modifier>
=

>  <measured number>
1.78

$$$$
